Literature compilation of IC50 measurements on UniProtKB P17931.
Sequence (P17931 whole entry): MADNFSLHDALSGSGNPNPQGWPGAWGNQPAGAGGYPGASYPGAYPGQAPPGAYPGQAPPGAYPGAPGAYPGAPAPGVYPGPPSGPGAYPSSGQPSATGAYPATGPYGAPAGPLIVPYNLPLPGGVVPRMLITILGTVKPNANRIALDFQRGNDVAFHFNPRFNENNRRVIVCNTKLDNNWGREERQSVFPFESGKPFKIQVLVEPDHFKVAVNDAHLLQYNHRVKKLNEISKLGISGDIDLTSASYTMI
EXPERIMENTAL_READOUT: IC50 (nM)

COMPOUND	TESTED_SYSTEM	UNIT_SPEC	IC50
CO[C@@H]1[C@@H](n2cc(-c3cc(F)c(F)c(F)c3)nn2)[C@@H](O)[C@@H](CO)O[C@@H]1Cn1cc(-c2cccc(F)c2)nn1	UniProtKB P17931	nM	1240
CO[C@@H]1[C@@H](n2cc(-c3cc(F)c(F)c(F)c3)nn2)[C@@H](O)[C@@H](CO)O[C@@H]1Cc1cc(C2CCNC(=O)C2)no1 (stereo partly shown)	UniProtKB P17931	nM	260
CO[C@@H]1[C@@H](n2cc(-c3cc(F)c(F)c(F)c3)nn2)[C@@H](O)[C@@H](CO)O[C@@H]1CC1CC(c2cncnc2)=NO1 (stereo partly shown)	UniProtKB P17931	nM	650
CO[C@@H]1[C@@H](n2cc(-c3cc(F)c(F)c(F)c3)nn2)[C@@H](O)[C@@H](CO)O[C@@H]1Cc1cc(C2CCC(=O)NC2)no1 (stereo partly shown)	UniProtKB P17931	nM	75
CO[C@@H]1[C@@H](n2cc(-c3cc(F)c(Cl)c(F)c3)nn2)[C@@H](O)[C@@H](CO)O[C@H]1C(=O)N(c1cc(Cl)cc(C#N)c1)[C@@H]1CCC[C@H]1O	UniProtKB P17931	nM	153

[P] CO[C@@H]1[C@@H](n2cc(-c3ccc(C#N)c(F)c3)nn2)[C@@H](O)[C@@H](CO)O[C@H]1C(=O)N(c1cc(Cl)cc(C#N)c1)[C@@H]1CCC[C@H]1O
[Q] COc1cc(-c2cn([C@H]3[C@@H](O)[C@@H](CO)O[C@@H](C(=O)N(c4cc(Br)cc(Br)c4)[C@H]4CCC[C@@H]4O)[C@@H]3OC)nn2)cc(F)c1F
[R] CO[C@@H]1[C@@H](n2cc(-c3ccc(C)c(F)c3F)nn2)[C@@H](O)[C@@H](CO)O[C@@H]1CN1CC2(CCOCC2)OC1=O
[S] CC(C)(C)OC(=O)N1CCC(C2CC(C[C@H]3O[C@H](CO)[C@H](O)[C@H](n4cc(-c5cc(F)c(F)c(F)c5)nn4)[C@H]3O)=NO2)CC1 (stereo partly shown)
Ask | Ascending sort, IC50. Please respond with the labels ordered as the question requires.
Reply | Q, R, S, P
(Q: 28.8 nM, R: 90 nM, S: 450 nM, P: 978 nM)
